System Name: Recombinant human calpain I (Homo sapiens)
Construct: made in house
Sequence (P07384 1-714): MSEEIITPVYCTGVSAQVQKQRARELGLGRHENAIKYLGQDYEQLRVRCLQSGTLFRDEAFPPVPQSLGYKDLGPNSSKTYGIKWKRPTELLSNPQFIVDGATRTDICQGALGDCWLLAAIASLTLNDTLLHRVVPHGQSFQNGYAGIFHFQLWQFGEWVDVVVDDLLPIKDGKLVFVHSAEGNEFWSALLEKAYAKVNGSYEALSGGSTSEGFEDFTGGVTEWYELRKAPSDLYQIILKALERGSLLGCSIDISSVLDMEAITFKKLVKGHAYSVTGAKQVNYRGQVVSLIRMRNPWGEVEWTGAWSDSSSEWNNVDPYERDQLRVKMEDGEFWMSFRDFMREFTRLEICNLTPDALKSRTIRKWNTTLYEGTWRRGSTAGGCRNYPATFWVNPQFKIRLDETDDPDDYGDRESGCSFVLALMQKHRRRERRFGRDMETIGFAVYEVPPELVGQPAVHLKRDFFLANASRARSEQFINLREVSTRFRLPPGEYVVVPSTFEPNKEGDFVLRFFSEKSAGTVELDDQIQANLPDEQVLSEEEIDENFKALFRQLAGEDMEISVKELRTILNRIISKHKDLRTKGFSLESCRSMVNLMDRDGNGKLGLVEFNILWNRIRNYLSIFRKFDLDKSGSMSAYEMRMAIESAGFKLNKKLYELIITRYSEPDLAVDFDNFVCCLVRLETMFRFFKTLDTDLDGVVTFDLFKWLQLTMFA
Sequence (P04632 1-268 partner): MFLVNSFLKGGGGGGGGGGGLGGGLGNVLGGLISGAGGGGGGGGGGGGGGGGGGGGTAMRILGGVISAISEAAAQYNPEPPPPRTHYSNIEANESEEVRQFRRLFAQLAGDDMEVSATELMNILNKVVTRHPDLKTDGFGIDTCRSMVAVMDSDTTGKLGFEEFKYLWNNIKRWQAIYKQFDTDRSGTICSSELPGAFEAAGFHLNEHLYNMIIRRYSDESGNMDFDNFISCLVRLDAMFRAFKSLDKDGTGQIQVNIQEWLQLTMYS
Assay Notes: Inhibition of cysteine protease activity: calpain I, Succ-Leu-Tyr-MNA substrate hydrolysis
Assay type: biochemical
Experimental Parameters: Table 2, linear α-ketoamides
Assay Endpoint: IC50 (µM)
Dear colleague, please return just the value in µM, with no unit written.

>>> test_value("CS(=O)(=O)NC(COCc1ccccc1)C(=O)NC(Cc1ccccc1)C(=O)C(=O)NCCNS(=O)(=O)c1ccc(-c2ccccc2)s1 (mixture of isomers)")
0.014
>>> test_value("CS(=O)(=O)N[C@H](COCc1ccccc1)C(=O)N[C@@H](Cc1ccccc1)C(=O)C(=O)NCCNS(=O)(=O)c1ccc(-c2ccccc2)s1")
0.014
>>> test_value("CN(C)Cc1ccc(S(=O)(=O)NCCNC(=O)C(=O)[C@H](Cc2ccccc2)NC(=O)[C@@H](COCc2ccccc2)NS(C)(=O)=O)cc1")
0.064
>>> test_value("CS(=O)(=O)N[C@H](COCc1ccccc1)C(=O)N[C@@H](Cc1ccccc1)C(=O)C(=O)NCCNS(=O)(=O)c1ccc(N)cc1")
0.042
>>> test_value("CS(=O)(=O)N[C@H](COCc1ccccc1)C(=O)N[C@@H](Cc1ccccc1)C(=O)C(=O)NCCNS(=O)(=O)c1ccccc1")
0.016
>>> test_value("CS(=O)(=O)NCCNC(=O)C(=O)[C@H](Cc1ccccc1)NC(=O)[C@@H](COCc1ccccc1)NS(C)(=O)=O")
0.091
>>> test_value("Cn1nc(-c2ccc(S(=O)(=O)NCCNC(=O)C(=O)C(Cc3ccccc3)NC(=O)C(COCc3ccccc3)NS(C)(=O)=O)s2)cc1C(F)(F)F (mixture of isomers)")
0.025
>>> test_value("CSc1nccc(-c2ccc(S(=O)(=O)NCCNC(=O)C(=O)[C@H](Cc3ccccc3)NC(=O)[C@@H](COCc3ccccc3)NS(C)(=O)=O)s2)n1")
0.017

Data request: Entry CS(=O)(=O)N[C@H](COCc1ccccc1)C(=O)N[C@@H](Cc1ccccc1)C(=O)C(=O)NCCNS(=O)(=O)c1ccc(Br)s1 : reported IC50 = ?
Data returned: 0.022

Data request: Entry CC(C)C[C@H](NC(=O)OCc1ccccc1)C(=O)N[C@@H](Cc1ccccc1)C(=O)C(=O)NCCNS(=O)(=O)c1ccccc1 : reported IC50 = ?
Data returned: 0.011

Data request: Entry CS(=O)(=O)N[C@H](COCc1ccccc1)C(=O)N[C@@H](Cc1ccccc1)C(=O)C(=O)NCCNS(=O)(=O)CCc1ccncc1 : reported IC50 = ?
Data returned: 0.144

Data request: Entry CS(=O)(=O)N[C@H](COCc1ccccc1)C(=O)N[C@@H](Cc1ccccc1)C(=O)C(=O)NCCNS(=O)(=O)c1ccc(-c2ccon2)s1 : reported IC50 = ?
Data returned: 0.01
